Hello, the source for this data is patent US20240109974A1, in case you need it.

Molecular target: T1, Human TNFR2-His (Sino 10417-H08H) (human, UniProt P20333 23-257)
T1 construct: Bought protein; also called recombinant human TNFR2 protein; not shown: His tag
T1 sequence (looked up): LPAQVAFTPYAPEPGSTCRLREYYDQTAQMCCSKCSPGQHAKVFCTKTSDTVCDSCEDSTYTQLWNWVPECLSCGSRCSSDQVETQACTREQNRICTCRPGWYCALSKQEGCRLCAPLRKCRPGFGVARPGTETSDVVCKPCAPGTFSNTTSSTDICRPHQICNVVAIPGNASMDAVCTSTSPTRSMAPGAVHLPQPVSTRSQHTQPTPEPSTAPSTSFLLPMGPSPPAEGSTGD
Assay: ELISA, human TNFR2-His coated
Task for the reader: assign each of the following binders its reported EC50.
One number for each entry, in µg/mL.

Solved entries (count: 9):
| BINDER | UNITS_LABEL | EC50 |
| --- | --- | --- |
| 219-Hu3 (antibody, V domains shown, also called VH5 + VL5) VH: QVQLVQSGAEVKKPGSSVKVSCKASGYSFTNYWMNWVRQAPGQGLEWMGMIHPSDTETRLNQNFKDRVTITADKSTSTAYMELSSLRSEDTAVYYCARGEGLGAARSVSMDYWGQGTLVTVSS VL: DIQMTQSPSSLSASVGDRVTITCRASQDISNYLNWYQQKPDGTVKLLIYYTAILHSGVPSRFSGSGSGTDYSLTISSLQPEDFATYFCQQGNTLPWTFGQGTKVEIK | µg/mL | 0.021 |
| 001-Hu2 (antibody, V domains shown, Humanized form of #001; also called VH2 + VL2) VH: EVQLVESGGGLVQPGGSLRLSCAASGFAFSTYDLSWVRQAPGKGLEWVAYINNGGISTYYSDTVKGRFTISRDNAKNSLYLQMNSLRAEDTAVYYCVRGPFYGSANYFDYWGQGTLVTVSS VL: DIQMTQSPSSLSASVGDRVTITCRTSESIYSNLPWYQQKPGKSPKLLIYDATKLAEGVPSRFSGSGSGTDFTLTISSLQPEDFATYYCQHFWVTPWTFGQGTKVEIK | µg/mL | 0.00956 |
| 224-Hu5 (antibody, V domains shown, Humanized form of #224; also called VH9 + VL9) VH: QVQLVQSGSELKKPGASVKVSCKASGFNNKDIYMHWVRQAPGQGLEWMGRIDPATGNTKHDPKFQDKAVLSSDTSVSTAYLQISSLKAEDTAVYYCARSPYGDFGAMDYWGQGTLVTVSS VL: DIQMTQSPSSLSASVGDRVTITCTASSSVSSNYLHWYQQKPGKAPKLLIYSTSNLPSGVPSRFSGSGSGTDYSLTISSLQPEDFATYYCHQYHRSPWTFGQGTKVEIK | µg/mL | 0.0116 |
| 224-Hu4 (antibody, V domains shown, Humanized form of #224; also called VH9 + VL6) VH: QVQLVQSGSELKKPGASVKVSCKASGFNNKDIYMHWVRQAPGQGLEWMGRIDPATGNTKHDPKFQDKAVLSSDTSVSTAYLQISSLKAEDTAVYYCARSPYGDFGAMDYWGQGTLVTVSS VL: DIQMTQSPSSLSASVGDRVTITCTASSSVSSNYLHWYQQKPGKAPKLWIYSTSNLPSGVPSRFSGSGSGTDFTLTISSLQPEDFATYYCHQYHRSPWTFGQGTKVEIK | µg/mL | 0.0107 |
| 001-Hu4 (antibody, V domains shown, Humanized form of #001; also called VH2 + VL4) VH: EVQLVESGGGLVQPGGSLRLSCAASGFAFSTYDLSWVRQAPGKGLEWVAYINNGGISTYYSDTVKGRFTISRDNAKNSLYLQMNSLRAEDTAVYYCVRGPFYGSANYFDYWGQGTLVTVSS VL: DIQMTQSPSSLSASVGDRVTITCRTSESIYSNLPWYQQKPGKSPKLLVYDATKLAEGVPSRFSGSGSGTDYTLTISSLQPEDFATYYCQHFWVTPWTFGQGTKVEIK | µg/mL | 0.00894 |
| 219-Hu2 (antibody, V domains shown, also called VH4 + VL5) VH: QVQLVQSGAEVKKPGSSVKVSCKASGYSFTNYWMNWVRQAPGQGLEWMGMIHPSDTETRLNQNFKDKATITADKSTSTAYMELSSLRSEDTAVYYCARGEGLGAARSVSMDYWGQGTLVTVSS VL: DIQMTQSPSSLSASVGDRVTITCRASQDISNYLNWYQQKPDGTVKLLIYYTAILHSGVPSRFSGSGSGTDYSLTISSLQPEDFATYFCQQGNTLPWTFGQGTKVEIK | µg/mL | 0.0185 |
| 224-Hu2 (antibody, V domains shown, Humanized form of #224; also called VH9 + VL7) VH: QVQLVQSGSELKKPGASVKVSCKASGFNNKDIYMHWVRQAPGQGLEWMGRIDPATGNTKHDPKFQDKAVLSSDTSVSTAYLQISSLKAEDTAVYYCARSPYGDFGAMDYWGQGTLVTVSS VL: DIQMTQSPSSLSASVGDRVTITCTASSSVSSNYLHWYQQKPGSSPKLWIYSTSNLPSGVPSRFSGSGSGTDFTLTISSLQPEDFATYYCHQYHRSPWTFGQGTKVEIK | µg/mL | 0.0108 |
| 001-Hu1 (antibody, V domains shown, Humanized form of #001; also called VH1 + VL1) VH: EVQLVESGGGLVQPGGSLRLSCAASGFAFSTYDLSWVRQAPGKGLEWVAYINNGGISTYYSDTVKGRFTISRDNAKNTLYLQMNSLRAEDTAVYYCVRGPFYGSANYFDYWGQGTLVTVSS VL: DIQMTQSPSSLSASVGDRVTITCRTSESIYSNLPWYQQKPGKAPKLLLYDATKLAEGVPSRFSGSGSGTDYTLTISSLQPEDFATYYCQHFWVTPWTFGQGTKVEIK | µg/mL | 0.00986 |
| 224-Hu6 (antibody, V domains shown, Humanized form of #224; also called VH8 + VL7) VH: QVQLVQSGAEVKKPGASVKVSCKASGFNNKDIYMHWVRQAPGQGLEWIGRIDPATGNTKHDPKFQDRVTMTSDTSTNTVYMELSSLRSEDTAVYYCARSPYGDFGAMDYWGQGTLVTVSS VL: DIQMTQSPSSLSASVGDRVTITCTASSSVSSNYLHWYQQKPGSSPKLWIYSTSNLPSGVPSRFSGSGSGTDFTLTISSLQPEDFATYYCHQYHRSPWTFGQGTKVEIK | µg/mL | 0.0111 |

Continue with the next binder.
Dear colleague, please send me the reported EC50 for 219-Hu5 (antibody, V domains shown, also called VH7 + VL5) VH: QVQLVQSGAEVKKPGSSVKVSCKASGYSFTNYWMNWVRQAPGQGLEWMGMIHPSDTETRLNQNFKDRVTITVDKSTSTAYMELSSLRSEDTAVYYCARGEGLGAARSVSMDYWGQGTLVTVSS VL: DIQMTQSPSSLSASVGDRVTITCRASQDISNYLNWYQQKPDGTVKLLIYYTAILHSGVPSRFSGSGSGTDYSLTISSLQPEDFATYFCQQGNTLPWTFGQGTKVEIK when you can.
0.0173
